Data origin, for the record: PubChem BioAssay AID720706

Entries and their measured GFP signal change (wild-type ribosome) follow.
- method: GFP drop in mixed WT/humanized-ribosome E. coli culture – GFP/RFP fluorescence, OD600, single point, bacterial rRNA inhibitor project, primary screen (AID 720706)
- measurementContext: E. coli WT GFP vs humanized-ribosome RFP mutants, 24 h; stronger effect = lower value, DMSO median 0, no signal -100
The campaign covered roughly 350,000 compounds. About 5,500 (1.6%) were called active. Shown is part of a subset that was picked to be rich in actives.
Reply numerically in %, unit not repeated.

[[record]]
compoundstring = "COc1ccc(-c2cc3nc(NCCOc4ccccc4)ccn3n2)cc1"
quantitykind = "GFP signal change (wild-type ribosome)"
valuemeasured = -7.79

[[record]]
compoundstring = "Cc1noc(C)c1S(=O)(=O)Nc1ccc2c(c1)C(=O)N([C@@H](C)CO)C[C@@H](C)[C@H](CN(C)C(=O)NC(C)C)OCCCC[C@@H](C)O2"
quantitykind = "GFP signal change (wild-type ribosome)"
valuemeasured = 4.36

[[record]]
compoundstring = "O=[N+]([O-])c1cccc(/C=N/Nc2ncc(Br)cn2)c1"
quantitykind = "GFP signal change (wild-type ribosome)"
valuemeasured = 14.8

[[record]]
compoundstring = "C=CCOc1ccc(/C=C2\\SC(=S)N(CCC(=O)O)C2=O)cc1"
quantitykind = "GFP signal change (wild-type ribosome)"
valuemeasured = -32.4

[[record]]
compoundstring = "CCn1ccnc1CN(C)C(=O)c1cc(COc2ccc(Cl)cc2OC)on1"
quantitykind = "GFP signal change (wild-type ribosome)"
valuemeasured = 2.1

[[record]]
compoundstring = "COCCCNc1ccn2nc(-c3ccc(CC(C)C)cc3)cc2n1"
quantitykind = "GFP signal change (wild-type ribosome)"
valuemeasured = -26.9

[[record]]
compoundstring = "COc1ccc(/C=C2\\SC(=S)N(CCC(=O)N3CCOCC3)C2=O)cc1OC"
quantitykind = "GFP signal change (wild-type ribosome)"
valuemeasured = 10.4

[[record]]
compoundstring = "C[C@H]1CCCCO[C@@H](CN(C)Cc2ccncc2)[C@@H](C)CN([C@@H](C)CO)C(=O)c2cc(NC(=O)Nc3ccc(F)cc3)ccc2O1"
quantitykind = "GFP signal change (wild-type ribosome)"
valuemeasured = 1.44


The compound COc1cc(Cl)ccc1OCc1cc(C(=O)N(C)CCc2c(C)n[nH]c2C)no1 showed GFP signal change (wild-type ribosome) equal to -23.6

###

- method: GFP drop in mixed WT/humanized-ribosome E. coli culture – GFP/RFP fluorescence, OD600, single point, bacterial rRNA inhibitor project, primary screen (AID 720706)
- measurementContext: E. coli WT GFP vs humanized-ribosome RFP mutants, 24 h; stronger effect = lower value, DMSO median 0, no signal -100
The whole screen tested about 350,000 compounds, of which about 5,500 (1.6%) were called active. The full list was thinned out, with actives kept by preference.
quantityKind: GFP signal change (wild-type ribosome) (%)
Give your result in % as a bare value.

[[record]]
compound = "CC(=O)NC(c1ccccc1)c1nc(-c2ccccc2C)cs1 (stereo not given)"
valuemeasured = 6.39

[[record]]
compound = "Cc1ccccc1-c1cnc2c(c1)C(=O)N([C@H](C)CO)C[C@@H](C)[C@H](CN(C)C(=O)c1cccnc1)O2"
valuemeasured = 2.61

[[record]]
compound = "CNC(=O)C[C@H]1CC[C@H]2[C@H](COc3ccc(NC(=O)Nc4ccc(F)cc4)cc3C(=O)N2C)O1"
valuemeasured = 1.92

[[record]]
compound = "O=C(COC(=O)Cc1ccc(Br)cc1)Nc1c(F)c(F)c(F)c(F)c1F"
valuemeasured = -24.2


Let us move to another entry and its GFP signal change (wild-type ribosome).
So for COc1cccc(C(NC(C)=O)c2nc(-c3cnc4ccccc4c3)cs2)c1 (stereo not given) , the logged GFP signal change (wild-type ribosome) turned out to be 1.07

###

Entries annotated with measured OD600 change
- method: GFP drop in mixed WT/humanized-ribosome E. coli culture – GFP/RFP fluorescence, OD600, single point, bacterial rRNA inhibitor project, primary screen (AID 720706)
- measurementContext: E. coli WT GFP vs humanized-ribosome RFP mutants, 24 h; measured here: OD600 growth, DMSO median 0, no signal -100
The whole screen tested about 350,000 compounds, of which about 5,500 (1.6%) were called active. The full list was thinned out, with actives kept by preference.
Use % as the unit, but write only the number.

[[record]]
compound = "COc1cccc(C(=O)c2cc3ccc(O)cc3oc2=O)c1"
quantitykind = "OD600 change"
valuemeasured = -15

[[record]]
compound = "O=C(O)c1ccc(N/N=C/c2cn(-c3ccccc3)nc2-c2cccs2)cc1"
quantitykind = "OD600 change"
valuemeasured = -18.5

[[record]]
compound = "CCCn1c(NC(=O)C23CC4CC(CC(O)(C4)C2)C3)nc2ccccc21"
quantitykind = "OD600 change"
valuemeasured = -35.7


// recorded OD600 change for C[C@H](CO)N1C[C@H](C)[C@@H](CN(C)S(C)(=O)=O)Oc2ccc(NC(=O)Nc3ccc4c(c3)OCO4)cc2CC1=O : 5.52

Value of OD600 change reported for the compound C[C@H](CO)N1C[C@H](C)[C@@H](CN(C)C(=O)C2CC2)Oc2cc(C#CC(C)(C)O)ccc2S1(=O)=O is 10.5

// recorded OD600 change for N#CCC(=O)N/N=C/c1cn(Cc2ccc3ccccc3c2)c2ccccc12 : -2.06

# compound CC(C)NC(=O)N[C@@H]1CC[C@H](CC(=O)NC2Cc3ccccc3C2)O[C@H]1CO ; its OD600 change = 0.47

Record summary for N#CC1=C(N)Oc2cc(N)ccc2C1c1ccccc1 (stereo not given) : reported OD600 change = 13.2

Input Cn1cnc(CCNC(=O)C[C@@H]2CC[C@H]3[C@@H](COC[C@@H](O)CN3C(=O)Nc3ccc(Cl)cc3)O2)c1 . Output OD600 change: -23.2

###

- method: GFP drop in mixed WT/humanized-ribosome E. coli culture – GFP/RFP fluorescence, OD600, single point, bacterial rRNA inhibitor project, primary screen (AID 720706)
- measurementContext: E. coli WT GFP vs humanized-ribosome RFP mutants, 24 h; measured here: OD600 growth, DMSO median 0, no signal -100
About 5,500 (1.6%) of roughly 350,000 compounds were called active. The sample holds actives, similar compounds and a random draw of the others, so the mix is not that of the screen.
quantityKind: OD600 change (%)
Respond with the bare value in %.

[[record]]
molecule = "COc1ccc2c3c(n(C)c2c1)[C@H](CO)NCC31CN(S(=O)(=O)c2cccc(C)c2)C1"
valuemeasured = -33


Entry under test: C[C@@H]1CN([C@@H](C)CO)S(=O)(=O)c2ccc(C#C[C@@H](C)O)cc2O[C@@H]1CN(C)CC1CC1 . Its OD600 change was -4.39

Looking up C[C@H](CO)N1C[C@H](C)[C@H](CN(C)Cc2ccc(C(=O)Nc3ccccc3N)cc2)Oc2ccc(NS(C)(=O)=O)cc2C1=O , I found its OD600 change recorded as 6.32

Noted for C[C@H](CO)N1C[C@H](C)[C@@H](CN(C)Cc2ccccc2)Oc2c(NC(=O)CCCCCC(=O)Nc3ccccc3N)cccc2C1=O : its OD600 change reads -16.3

// OD600 change lookup, molecule = CCC(=O)N(C)C[C@H]1Oc2cc(/C=C/c3ccccc3)ccc2S(=O)(=O)N([C@H](C)CO)C[C@@H]1C , result: -24.1

Per the record, CCCOc1ccc(F)cc1-c1cc(C(=O)Nc2ccc(F)c(Cl)c2)[nH]n1 has OD600 change of -20.4

// CCN(CC)C(=O)Oc1ccc(Br)cc1C(=O)Nc1ccc(F)c(Cl)c1 : OD600 change value = -13.7

###

- method: GFP drop in mixed WT/humanized-ribosome E. coli culture – GFP/RFP fluorescence, OD600, single point, bacterial rRNA inhibitor project, primary screen (AID 720706)
- measurementContext: E. coli WT GFP vs humanized-ribosome RFP mutants, 24 h; stronger effect = lower value, DMSO median 0, no signal -100
In all, about 350,000 compounds went through this assay and about 5,500 (1.6%) were called active. The sample as a whole holds a higher share of actives than the screen did.
quantityKind: GFP signal change (wild-type ribosome) (%)
Dear colleague, please return just the value in %, with no unit written.

Study these solved cases before continuing.
[[record]]
molecule = "CCC(=O)Nc1ccc2c(c1)OC[C@@H](C)N(CC1CC1)C[C@H](C)[C@H](OC)CN(C)C2=O"
unitsymbol = "%"
valuemeasured = 1.22

[[record]]
molecule = "COc1ccc2c3c(n(C)c2c1)[C@@H](CO)N(C(=O)CN1CCOCC1)CC31CCN(Cc2ccncc2)CC1"
unitsymbol = "%"
valuemeasured = 1.45

[[record]]
molecule = "COc1ccc(CNC(=O)COC(=O)c2ccc(C)c(S(=O)(=O)N3CCOCC3)c2)cc1OC"
unitsymbol = "%"
valuemeasured = -1.36


Form: molecule = CCS(=O)(=O)N1Cc2cc(C(=O)N(C)C)nc(-c3cccc(-c4ccc(C#N)cc4)c3)c2[C@H]1CCO ; GFP signal change (wild-type ribosome) = 1.6

The value of GFP signal change (wild-type ribosome) measured for the molecule CCC(C)N(C)C1CCN(C(=S)Nc2ccc(OC)cc2)CC1 (centres undefined) turned out to be 6.68

Entry CS(=O)(=O)N1CCCCN2[C@@H](CO)[C@@H](c3ccc(Br)cc3)[C@@H]2C1 , GFP signal change (wild-type ribosome) reported as 5.32

# molecule CCCC#Cc1ccc([C@@H]2[C@@H](CO)N3C(=O)CN(C(=O)Nc4ccc(F)cc4)C[C@@H]23)cc1 ; its GFP signal change (wild-type ribosome) = -0.84

Consider CCCNC(=O)c1cc2c(c(-c3cccc(-c4ccc(F)cc4)c3)n1)[C@@H](CCO)N([S@](=O)C(C)(C)C)C2 . Its measured GFP signal change (wild-type ribosome) is -7.84
